Reference for the values: PubChem BioAssay (EPA / NIEHS)

Biological target: Cytochrome P450 2C19 (Homo sapiens)
Assay: NVS_ADME_hCYP2C19: NovaScreen (NVS) CYP450-related Enzyme Activity (ADME) Assay for human CYP2C19 (AID 2283113)
Inconclusive results are not listed. Active and inactive are the calls of the source. Rule for the calls: active = hit-call score of the fitted dose curve at least 0.9, where 1 is the maximum; inconclusive = response in the unintended direction; inactive = score below 0.9.
Choose the fitting class; nothing outside t = active, f = inactive is accepted.

Task item: For O=C(O)CCCOc1ccc(Cl)cc1Cl , which call appears in the assay record?
Reply: t

Task item: For CC1(C)C(C=C(Cl)Cl)C1C(=O)OC(C#N)c1ccc(F)c(Oc2ccccc2)c1 (stereo not drawn) , which call appears in the assay record?
Reply: t

Task item: For CCC(C)(NC(=O)c1cc(Cl)c(C)c(Cl)c1)C(=O)CCl (stereo not drawn) , which call appears in the assay record?
Reply: f

Task item: For CCOCN(C(=O)CCl)c1c(C)cccc1CC , which call appears in the assay record?
Reply: t

Task item: For CC(C)(C)C(O)/C(=C\c1ccc(Cl)cc1Cl)n1cncn1 (stereo not drawn) , which call appears in the assay record?
Reply: t

Task item: For O=S1OCC2C(CO1)C1(Cl)C(Cl)=C(Cl)C2(Cl)C1(Cl)Cl (stereo not drawn) , which call appears in the assay record?
Reply: t

Task item: For COC(=O)c1ccccc1S(=O)(=O)NC(=O)Nc1nc(C)nc(OC)n1 , which call appears in the assay record?
Reply: t

Task item: For COP(=S)(OC)Oc1ccc(SC)c(C)c1 , which call appears in the assay record?
Reply: t

Task item: For O=C(O)COc1ccc(Cl)cc1Cl , which call appears in the assay record?
Reply: t

Task item: For Oc1ccc(Cl)cc1Cc1ccccc1 , which call appears in the assay record?
Reply: t

Task item: For CCOC1Oc2ccc(OS(C)(=O)=O)cc2C1(C)C (stereo not drawn) , which call appears in the assay record?
Reply: t

Task item: For CN1CSC(=S)N(C)C1 , which call appears in the assay record?
Reply: t

Task item: For C[C@H]1[C@H](c2ccc(Cl)cc2)SC(=O)N1C(=O)NC1CCCCC1 , which call appears in the assay record?
Reply: t

====

Experiment: CCTE_Shafer_MEA_dev_firing_rate_mean: CCTE's Neural Network Formation Assay for Mean Firing Rate, Shafer Lab (AID 2284031);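 note: AUC of well mean spike rate recorded on DIV 5 7 9 and 12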
Active and inactive are the calls of the source. How the source made its calls: active means hit-call score of the fitted dose curve at least 0.9, where 1 is the maximum; inactive means score below 0.9.
Choose the fitting class; nothing outside active, inactive is accepted.

Task item: For CC1(c2ccc(Oc3ccccc3)cc2)OC(=O)N(Nc2ccccc2)C1=O (centres undefined) , which call appears in the assay record?
Reply: active

Task item: For O=C(O)C(F)(F)C(F)(F)C(F)(F)C(F)(F)C(F)(F)C(F)(F)C(F)(F)F , which call appears in the assay record?
Reply: inactive

Task item: For O=S1OCC2C(CO1)C1(Cl)C(Cl)=C(Cl)C2(Cl)C1(Cl)Cl (centres undefined) , which call appears in the assay record?
Reply: inactive

Task item: For O=S(=O)(O)C(F)(F)C(F)(F)C(F)(F)C(F)(F)C(F)(F)C(F)(F)C(F)(F)C(F)(F)F , which call appears in the assay record?
Reply: inactive

Task item: For Oc1cc(Cl)ccc1Oc1ccc(Cl)cc1Cl , which call appears in the assay record?
Reply: active

Task item: For CCC(C)(C)C(=O)OC1=C(c2ccc(Cl)cc2Cl)C(=O)OC12CCCCC2 , which call appears in the assay record?
Reply: inactive

Task item: For ClC1C(Cl)C(Cl)C(Cl)C(Cl)C1Cl (centres undefined) , which call appears in the assay record?
Reply: inactive

Task item: For CC(C)N(C(=O)COc1nnc(C(F)(F)F)s1)c1ccc(F)cc1 , which call appears in the assay record?
Reply: inactive

Task item: For O=C(O)COc1ccc(Cl)cc1Cl , which call appears in the assay record?
Reply: inactive

====

Read-out: ABC Transporter (ABCB11), ABCB11 (gene 8647)
Assay: CLD_ABCB11_6hr: CellzDirect (CLD) Gene Expression Assay for ABC Transporter (ABCB11) at 6 hours (AID 2283675);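 note: hits raise ABCB11 mRNA level so AC50 marks induction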
Procedure: CLD_6hr is a cell-based, multiplexed-readout assay that uses hepatocyte, a human liver primary cell, with measurements taken at 6 hours after chemical dosing in a 96-well plate.CLD_ABCB11_6hr is one of 16 assay component(s) measured or calculated from the CLD_6hr assay. […] Furthermore, this assay endpoint can be referred to as a primary readout. […]
Results filed as inconclusive are left out. Activity calls are given as the source filed them. How the source made its calls: active means hit-call score of the fitted dose curve at least 0.9, where 1 is the maximum; inconclusive means response in the unintended direction; inactive means score below 0.9.
Choose the fitting class; nothing outside 1 (active), 0 (inactive) is accepted.

Task item: For CCOCN(C(=O)CCl)c1c(C)cccc1CC , which call appears in the assay record?
Reply: 0

Task item: For CCCN(CCOc1c(Cl)cc(Cl)cc1Cl)C(=O)n1ccnc1 , which call appears in the assay record?
Reply: 0

Task item: For CCC(C)Nc1c([N+](=O)[O-])cc(C(C)(C)C)cc1[N+](=O)[O-] (centres undefined) , which call appears in the assay record?
Reply: 0

Task item: For N#CN , which call appears in the assay record?
Reply: 0

Task item: For CCN(CC)C(=O)SCc1ccc(Cl)cc1 , which call appears in the assay record?
Reply: 0

Task item: For CNC(=O)CSP(=S)(OC)OC , which call appears in the assay record?
Reply: 0

Task item: For COC(=O)c1ccccc1S(=O)(=O)NC(=O)Nc1nc(C)nc(OC)n1 , which call appears in the assay record?
Reply: 0

Task item: For COC(=O)c1ccccc1CS(=O)(=O)NC(=O)Nc1nc(OC)cc(OC)n1 , which call appears in the assay record?
Reply: 0

Task item: For O=C(NC(=O)c1c(F)cccc1F)Nc1ccc(OC(F)(F)C(F)OC(F)(F)F)c(Cl)c1 (centres undefined) , which call appears in the assay record?
Reply: 0

Task item: For OCCOc1ccccc1 , which call appears in the assay record?
Reply: 0

Task item: For O=[N+]([O-])/N=C1\NCCN1Cc1ccc(Cl)nc1 , which call appears in the assay record?
Reply: 0

Task item: For COC(=O)c1ccccc1S(=O)(=O)NC(=O)N(C)c1nc(C)nc(OC)n1 , which call appears in the assay record?
Reply: 0

Task item: For O=S(=O)(O)C(F)(F)C(F)(F)C(F)(F)C(F)(F)C(F)(F)C(F)(F)C(F)(F)C(F)(F)F , which call appears in the assay record?
Reply: 0

Task item: For COP(=O)(OC)OC=C(Cl)Cl , which call appears in the assay record?
Reply: 0

Task item: For CC[C@H](C)[C@H]1O[C@]2(C=C[C@@H]1C)C[C@@H]1C[C@@H](C/C=C(\C)[C@@H](O[C@H]3C[C@H](OC)[C@@H](O[C@H]4C[C@H](OC)[C@@H](O)[C@H](C)O4)[C@H](C)O3)[C@@H](C)/C=C/C=C3\CO[C@@H]4[C@H](O)C(C)=C[C@@H](C(=O)O1)[C@]34O)O2 (tested in a mixture with another compound) , which call appears in the assay record?
Reply: 1

Task item: For O=C(O)C(F)(F)C(F)(F)C(F)(F)C(F)(F)C(F)(F)C(F)(F)C(F)(F)F , which call appears in the assay record?
Reply: 0

Task item: For Clc1ccccc1-c1nnc(-c2ccccc2Cl)nn1 , which call appears in the assay record?
Reply: 0

Task item: For CN1CSC(=S)N(C)C1 , which call appears in the assay record?
Reply: 0

Task item: For CCS(=O)(=O)c1cccnc1S(=O)(=O)NC(=O)Nc1nc(OC)cc(OC)n1 , which call appears in the assay record?
Reply: 0

====

Test: CCTE_Shafer_MEA_dev_interburst_interval_mean: CCTE's Neural Network Formation Assay for Mean Interburst Interval, Shafer Lab (AID 2284046);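 note: well-mean interburst interval of bursting electrodes as AUC over four recording days; curve fitted for decrease in interburst interval relative to DMSO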
Active and inactive are the calls of the source. The calls were made as follows: active = hit-call score of the fitted dose curve at least 0.9, where 1 is the maximum; inactive = score below 0.9.
Choose the fitting class; nothing outside T = active, F = inactive is accepted.

Task item: For O=S1OCC2C(CO1)C1(Cl)C(Cl)=C(Cl)C2(Cl)C1(Cl)Cl (stereo unspecified) , which call appears in the assay record?
Reply: F

Task item: For O=C(O)COc1ccc(Cl)cc1Cl , which call appears in the assay record?
Reply: F

Task item: For O=C(O)C(F)(F)C(F)(F)C(F)(F)C(F)(F)C(F)(F)C(F)(F)C(F)(F)F , which call appears in the assay record?
Reply: F

Task item: For Oc1cc(Cl)ccc1Oc1ccc(Cl)cc1Cl , which call appears in the assay record?
Reply: T

Task item: For CC1(c2ccc(Oc3ccccc3)cc2)OC(=O)N(Nc2ccccc2)C1=O (stereo unspecified) , which call appears in the assay record?
Reply: T

Task item: For CNC(=O)CSP(=S)(OC)OC , which call appears in the assay record?
Reply: F

====

Read-out: Monocyte Chemoattractant Protein-1 (MCP1), CCL2 (gene 6347)
Test: BSK_SAg_MCP1: BioMAP Diversity Plus: SAg Assay for Monocyte Chemoattractant Protein-1 (MCP1) Biomarker Activity (AID 2283090)
Conditions: primary human HUVEC with PBMC; actives raise or lower the signal
Active and inactive are the calls of the source. The calls were made as follows: active = hit-call score of the fitted dose curve at least 0.9, where 1 is the maximum; inactive = score below 0.9.
observationType: AC50

Worked cases, AC50 given:
compound	AC50
O=C(O)COc1ccc(Cl)cc1Cl	inactive
COC(=O)c1ccccc1CS(=O)(=O)NC(=O)Nc1nc(OC)cc(OC)n1	inactive
CNC(=O)/C=C(\C)OP(=O)(OC)OC	inactive
COc1cc(OC)nc(NC(=O)NS(=O)(=O)c2cc(NC=O)ccc2C(=O)N(C)C)n1	inactive
COC(=O)c1ccccc1S(=O)(=O)NC(=O)Nc1nc(C)nc(OC)n1	inactive
CCOC1Oc2ccc(OS(C)(=O)=O)cc2C1(C)C (stereo unspecified)	inactive

Task item: // lookup AC50 for O=S1OCC2C(CO1)C1(Cl)C(Cl)=C(Cl)C2(Cl)C1(Cl)Cl (stereo unspecified)
Reply: 35.5 µM (active)

Task item: // lookup AC50 for CC(C)(C)C(O)/C(=C\c1ccc(Cl)cc1Cl)n1cncn1 (stereo unspecified)
Reply: 31.8 µM (active)

Task item: // lookup AC50 for CN1CSC(=S)N(C)C1
Reply: 15 µM (active)

Task item: // lookup AC50 for C#CCN1C(=O)COc2cc(F)c(N3C(=O)C4=C(CCCC4)C3=O)cc21
Reply: inactive

Task item: // lookup AC50 for O=C(NC(=O)c1c(F)cccc1F)Nc1ccc(OC(F)(F)C(F)OC(F)(F)F)c(Cl)c1 (stereo unspecified)
Reply: 32.2 µM (active)

Task item: // lookup AC50 for CC[C@H](C)[C@H]1O[C@]2(C=C[C@@H]1C)C[C@@H]1C[C@@H](C/C=C(\C)[C@@H](O[C@H]3C[C@H](OC)[C@@H](O[C@H]4C[C@H](OC)[C@@H](O)[C@H](C)O4)[C@H](C)O3)[C@@H](C)/C=C/C=C3\CO[C@@H]4[C@H](O)C(C)=C[C@@H](C(=O)O1)[C@]34O)O2 (tested in a mixture with another compound)
Reply: 5.58 µM (active)

Task item: // lookup AC50 for CC(C)N(C(=O)COc1nnc(C(F)(F)F)s1)c1ccc(F)cc1
Reply: inactive
